target: C5 (Homo sapiens); test: Human hemolysis assay (RBC lysis assay using complete human sera); format: cell-based; parameters: with complete human sera (Complement Technology, Tyler Tex.) and polypeptides; tissue Complement Technology, Tyler Tex; host or cells: complete human serum; conditions: inhibition of lysis of antibody-sensitized sheep erythrocytes, complete human sera
Starred links: 1 amine or outer side, 2 acyl side, 3 side chain; linkers in the order of their positions; H or OH if unused. Positions of bridges follow the written chain, without caps; N, C: chain ends. Non-standard residues stand in square brackets, D forms with d. Residues, ends and D or L forms follow the SMILES beside them. Trp(7-aza) = N[C@@H](Cc1c[nH]c2ncccc12)C(=O)O; Trp(1-Me) = Cn1cc(C[C@H](N)C(=O)O)c2ccccc21; mXylylene = c1cc(C[*:1])cc(C[*:2])c1; oXylylene = c1ccc(C[*:2])c(C[*:1])c1; dChg = N[C@@H](C(=O)O)C1CCCCC1; Phg = N[C@H](C(=O)O)c1ccccc1; Tle = CC(C)(C)[C@H](N)C(=O)O; NMeS = CN[C@@H](CO)C(=O)O; Nva = CCC[C@H](N)C(=O)O
I'd appreciate it if you could supply IC50 values for the items below.

Some solved cases for reference:
CCC[C@H](NC(=O)[C@@H]1CSCc2cccc(c2)CSC[C@H](NC(=O)[C@H](CCC)NC(C)=O)C(=O)N[C@@H](c2ccccc2)C(=O)N[C@@H]([C@@H](C)O)C(=O)N[C@@H](Cc2cn(C)c3ccccc23)C(=O)N[C@@H](CCC(=O)O)C(=O)N[C@@H](Cc2ccc(O)cc2)C(=O)N(C)[C@@H](CO)C(=O)N[C@@H](C)C(=O)N1)C(N)=O [Compound R3109] (Ac-[Nva]C[Phg]T[Trp(1-Me)]EY[NMeS]AC[Nva]-NH2; linker 2-10 via mXylylene) = > 100 µM
CCC[C@H](NC(=O)[C@@H](NC(=O)[C@@H]1CCCN1C(=O)[C@H](Cc1ccc(O)cc1)NC(=O)[C@H](CCC(=O)O)NC(=O)[C@H](Cc1c[nH]c2ccc(OC)cc12)NC(=O)[C@H](Cc1ccc(O)cc1)NC(=O)[C@@H](NC(=O)[C@H](CC(N)=O)NC(=O)[C@H](CCC(=O)O)NC(=O)[C@H](Cc1ccc(O)cc1)NC(C)=O)C(C)(C)C)c1ccccc1)C(N)=O = > 100 µM
CCC[C@H](NC(=O)[C@@H]1CSCc2ccccc2CSC[C@H](NC(=O)[C@H](CCC)NC(C)=O)C(=O)N[C@@H](c2ccccc2)C(=O)N[C@@H]([C@@H](C)O)C(=O)N[C@@H](Cc2c[nH]c3ncccc23)C(=O)N[C@@H](CCC(=O)O)C(=O)N[C@@H](Cc2ccc(O)cc2)C(=O)N(C)[C@@H](CO)C(=O)N[C@@H](Cc2c[nH]cn2)C(=O)N1)C(N)=O [Compound R3049] (Ac-[Nva]C[Phg]T[Trp(7-aza)]EY[NMeS]HC[Nva]-NH2; linker 2-10 via oXylylene) = > 3.1 µM
CCC[C@H](NC(=O)[C@@H]1CSCc2cccc(c2)CSC[C@H](NC(=O)[C@H](CCC)NC(C)=O)C(=O)N[C@H](C2CCCCC2)C(=O)N[C@@H]([C@@H](C)O)C(=O)N[C@@H](Cc2c[nH]c3ncccc23)C(=O)N[C@@H](CCC(=O)O)C(=O)N[C@@H](Cc2ccc(O)cc2)C(=O)N(C)[C@@H](CO)C(=O)N[C@@H](C)C(=O)N1)C(N)=O [Compound R3093] (Ac-[Nva]C[dChg]T[Trp(7-aza)]EY[NMeS]AC[Nva]-NH2; linker 2-10 via mXylylene) = > 100 µM

Turning now to a further compound:
Enquiry: Consider the compound CC(=O)N[C@H]1CSCc2cccc(c2)CSC[C@@H](C(N)=O)NC(=O)[C@H](Cc2c[nH]cn2)NC(=O)[C@H](CO)N(C)C(=O)[C@H](Cc2ccc(O)cc2)NC(=O)[C@H](CCC(=O)O)NC(=O)[C@H](Cc2c[nH]c3ncccc23)NC(=O)[C@H](Cc2ccc(O)cc2)NC(=O)[C@H](C(C)(C)C)NC1=O [Compound R3016] (Ac-C[Tle]Y[Trp(7-aza)]EY[NMeS]HC-NH2; linker 1-9 via mXylylene) and give its recorded IC50.
Return: > 13 µM

---

Provide the reported pIC50 of each item.
biological target: C5 (Homo sapiens, UniProt P01031); assay: Human hemolysis assay (RBC lysis assay using complete human sera); assay type: cell-based; set-up: with complete human sera (Complement Technology, Tyler Tex.) and polypeptides; tissue Complement Technology, Tyler Tex; host or cells: complete human serum; details: inhibition of lysis of antibody-sensitized sheep erythrocytes, complete human sera
Sequence (P01031 19-1676): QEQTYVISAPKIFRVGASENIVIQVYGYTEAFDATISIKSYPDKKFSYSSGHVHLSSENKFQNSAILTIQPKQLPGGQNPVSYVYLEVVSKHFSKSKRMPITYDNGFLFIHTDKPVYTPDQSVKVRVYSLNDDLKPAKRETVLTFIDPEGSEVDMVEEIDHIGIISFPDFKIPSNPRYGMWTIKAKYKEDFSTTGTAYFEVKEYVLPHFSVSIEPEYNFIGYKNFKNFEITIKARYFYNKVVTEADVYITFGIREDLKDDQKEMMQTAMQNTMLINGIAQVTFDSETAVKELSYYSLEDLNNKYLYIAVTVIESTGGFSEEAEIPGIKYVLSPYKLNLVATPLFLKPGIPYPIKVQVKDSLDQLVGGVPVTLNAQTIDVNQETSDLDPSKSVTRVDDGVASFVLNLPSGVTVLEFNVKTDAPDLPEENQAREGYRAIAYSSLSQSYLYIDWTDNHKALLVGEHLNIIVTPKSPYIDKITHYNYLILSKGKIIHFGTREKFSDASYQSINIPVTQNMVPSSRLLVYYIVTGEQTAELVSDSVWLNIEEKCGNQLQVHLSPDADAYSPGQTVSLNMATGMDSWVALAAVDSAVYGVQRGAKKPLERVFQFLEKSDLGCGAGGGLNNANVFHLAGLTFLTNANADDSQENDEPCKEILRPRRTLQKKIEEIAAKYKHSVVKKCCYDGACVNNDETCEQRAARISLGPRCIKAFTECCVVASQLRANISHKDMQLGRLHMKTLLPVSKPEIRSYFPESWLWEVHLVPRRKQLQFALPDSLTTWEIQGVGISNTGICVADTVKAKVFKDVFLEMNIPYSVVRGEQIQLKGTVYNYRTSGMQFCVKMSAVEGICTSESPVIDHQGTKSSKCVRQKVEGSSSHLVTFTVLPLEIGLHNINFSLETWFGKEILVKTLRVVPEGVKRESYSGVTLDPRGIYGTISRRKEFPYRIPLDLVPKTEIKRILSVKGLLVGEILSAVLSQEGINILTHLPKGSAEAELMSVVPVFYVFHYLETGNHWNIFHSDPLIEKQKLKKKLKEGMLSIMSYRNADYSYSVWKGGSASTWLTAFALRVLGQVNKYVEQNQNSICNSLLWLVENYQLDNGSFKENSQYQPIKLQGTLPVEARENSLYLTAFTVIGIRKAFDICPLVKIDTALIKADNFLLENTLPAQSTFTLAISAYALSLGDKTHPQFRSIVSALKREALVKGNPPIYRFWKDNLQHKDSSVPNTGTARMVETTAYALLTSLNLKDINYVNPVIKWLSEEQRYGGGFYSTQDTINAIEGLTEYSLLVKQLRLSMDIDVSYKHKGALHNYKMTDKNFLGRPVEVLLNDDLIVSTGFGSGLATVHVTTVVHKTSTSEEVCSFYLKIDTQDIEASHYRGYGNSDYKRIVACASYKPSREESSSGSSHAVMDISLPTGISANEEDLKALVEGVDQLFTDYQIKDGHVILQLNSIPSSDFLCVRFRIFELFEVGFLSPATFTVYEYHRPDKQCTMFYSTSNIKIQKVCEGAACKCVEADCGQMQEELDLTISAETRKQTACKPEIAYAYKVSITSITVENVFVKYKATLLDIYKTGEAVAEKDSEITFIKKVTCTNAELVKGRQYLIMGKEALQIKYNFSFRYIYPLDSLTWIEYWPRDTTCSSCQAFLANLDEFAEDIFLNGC
pIC50: −log10 of the molar value. Starred links: 1 amine or outer side, 2 acyl side, 3 side chain; linkers in the order of their positions; H or OH if unused. Positions of bridges follow the written chain, without caps; N, C: chain ends. Non-standard residues stand in square brackets, D forms with d. Residues, ends and D or L forms follow the SMILES beside them. Trp(7-aza) = N[C@@H](Cc1c[nH]c2ncccc12)C(=O)O; mXylylene = c1cc(C[*:1])cc(C[*:2])c1; Phg = N[C@H](C(=O)O)c1ccccc1; Tle = CC(C)(C)[C@H](N)C(=O)O; NMeS = CN[C@@H](CO)C(=O)O; Nva = CCC[C@H](N)C(=O)O

Answered examples (3):
CCC[C@H](NC(=O)[C@@H]1CSCc2cccc(c2)CSC[C@H](NC(=O)[C@H](CCC)NC(C)=O)C(=O)N[C@@H](Cc2ccccc2)C(=O)N[C@@H]([C@@H](C)O)C(=O)N[C@@H](Cc2c[nH]c3ncccc23)C(=O)N[C@@H](CCC(=O)O)C(=O)N[C@@H](Cc2ccc(O)cc2)C(=O)N(C)[C@@H](CO)C(=O)N[C@@H](C)C(=O)N1)C(N)=O [Compound R3090] (Ac-[Nva]CFT[Trp(7-aza)]EY[NMeS]AC[Nva]-NH2; linker 2-10 via mXylylene) = < 4.00
CCC[C@H](NC(=O)[C@@H](NC(=O)[C@@H]1CCCN1C(=O)[C@@H]1CSCc2cccc(c2)CSC[C@H](NC(=O)[C@H](CCC)NC(C)=O)C(=O)N[C@@H](Cc2ccc(O)cc2)C(=O)N[C@@H](CCC(=O)O)C(=O)N[C@@H](CC(N)=O)C(=O)N[C@@H](C(C)(C)C)C(=O)N[C@@H](Cc2ccc(O)cc2)C(=O)N[C@@H](Cc2c[nH]c3ncccc23)C(=O)N[C@@H](CCC(=O)O)C(=O)N1)c1ccccc1)C(N)=O [Compound R3018] (Ac-[Nva]CYEN[Tle]Y[Trp(7-aza)]ECP[Phg][Nva]-NH2; linker 2-10 via mXylylene) = < 5.24
CC(=O)N[C@H]1CSCc2cccc(c2)CSC[C@@H](C(=O)N[C@H](C(=O)N[C@@H](Cc2ccc(O)cc2)C(=O)N[C@@H](Cc2c[nH]c3ccccc23)C(=O)N[C@@H](CCC(=O)O)C(=O)N[C@@H](Cc2ccccc2)C(N)=O)C(C)C)NC(=O)[C@H](Cc2ccccc2)NC(=O)[C@H](CCCNC(=N)N)NC(=O)[C@H](CCC(=O)O)NC(=O)[C@H](C(C)C)NC1=O [Compound R3124] (Ac-CVERFCVYWEF-NH2; linker 1-6 via mXylylene) = < 4.00

In the following, a different compound is considered.
Enquiry: Provide the reported pIC50 (system: C5 (Homo sapiens, UniProt P01031)) for CCC[C@H](NC(=O)[C@@H]1CSCc2cccc(c2)CSC[C@H](NC(=O)[C@H](CCC)NC(C)=O)C(=O)N[C@@H](c2ccccc2)C(=O)N[C@@H]([C@@H](C)O)C(=O)N[C@@H](Cc2c[nH]c3ncccc23)C(=O)N[C@@H](CCC(=O)O)C(=O)N[C@@H](Cc2ccc(O)cc2)C(=O)N[C@@H](CO)C(=O)N[C@@H](C)C(=O)N1)C(N)=O [Compound R3084] (Ac-[Nva]C[Phg]T[Trp(7-aza)]EYSAC[Nva]-NH2; linker 2-10 via mXylylene)
Return: < 4.00

---

Task for the reader: assign each of the following compounds its reported IC50.
biological target: C5 (Homo sapiens); assay: Human hemolysis assay (RBC lysis assay using complete human sera); type: cell-based; design: with complete human sera (Complement Technology, Tyler Tex.) and polypeptides; tissue Complement Technology, Tyler Tex; host or cells: complete human serum; details: inhibition of lysis of antibody-sensitized sheep erythrocytes, complete human sera
Starred links: 1 amine or outer side, 2 acyl side, 3 side chain; linkers in the order of their positions; H or OH if unused. Positions of bridges follow the written chain, without caps; N, C: chain ends. Non-standard residues stand in square brackets, D forms with d. Residues, ends and D or L forms follow the SMILES beside them. Trp(7-aza) = N[C@@H](Cc1c[nH]c2ncccc12)C(=O)O; mXylylene = c1cc(C[*:1])cc(C[*:2])c1; pXylylene = c1cc(C[*:2])ccc1C[*:1]; Chg = N[C@H](C(=O)O)C1CCCCC1; Phg = N[C@H](C(=O)O)c1ccccc1; NMeS = CN[C@@H](CO)C(=O)O; hCys = N[C@@H](CCS)C(=O)O; Nva = CCC[C@H](N)C(=O)O

CCC[C@H](NC(=O)[C@@H](NC(=O)[C@@H]1CCCN1C(=O)[C@H](Cc1ccc(O)cc1)NC(=O)[C@H](CCC(=O)O)NC(=O)[C@@H](Cc1c[nH]c2ccccc12)NC(=O)[C@H](Cc1ccc(O)cc1)NC(=O)[C@H](CC(N)=O)NC(=O)[C@H](CCC(=O)O)NC(=O)[C@H](Cc1ccc(O)cc1)NC(C)=O)c1ccccc1)C(N)=O [Compound R3119, Ac-Y-E-N-Y-(D-Trp)-E-Y-P-Phg-Nvl-NH2] (Ac-YENY[dW]EYP[Phg][Nva]-NH2) = > 100 µM
CCC[C@H](NC(=O)[C@@H]1CCSCc2ccc(cc2)CSC[C@H](NC(=O)[C@H](CCC)NC(C)=O)C(=O)N[C@@H](c2ccccc2)C(=O)N[C@@H]([C@@H](C)O)C(=O)N[C@@H](Cc2c[nH]c3ncccc23)C(=O)N[C@@H](CCC(=O)O)C(=O)N[C@@H](Cc2ccc(O)cc2)C(=O)N(C)[C@@H](CO)C(=O)N[C@@H](Cc2c[nH]cn2)C(=O)N1)C(N)=O [Compound R3106] (Ac-[Nva]C[Phg]T[Trp(7-aza)]EY[NMeS]H[hCys][Nva]-NH2; linker 2-10 via pXylylene) = > 5 µM
CCC[C@H](NC(=O)[C@@H]1CSCc2cccc(c2)CSC[C@H](NC(=O)[C@H](CCC)NC(C)=O)C(=O)N[C@@H](c2ccccc2)C(=O)N[C@@H]([C@@H](C)O)C(=O)N[C@@H](C)C(=O)N[C@@H](CCC(=O)O)C(=O)N[C@@H](Cc2ccc(O)cc2)C(=O)N(C)[C@@H](CO)C(=O)N[C@@H](Cc2c[nH]cn2)C(=O)N1)C(N)=O [Compound R3034] (Ac-[Nva]C[Phg]TAEY[NMeS]HC[Nva]-NH2; linker 2-10 via mXylylene) = > 50 µM
CCC[C@H](NC(=O)[C@@H]1CCSCc2cccc(c2)CSC[C@H](NC(=O)[C@H](CCC)NC(C)=O)C(=O)N[C@@H](c2ccccc2)C(=O)N[C@@H]([C@@H](C)O)C(=O)N[C@@H](Cc2c[nH]c3ncccc23)C(=O)N[C@@H](CCC(=O)O)C(=O)N[C@@H](Cc2ccc(O)cc2)C(=O)N(C)[C@@H](CO)C(=O)N[C@@H](Cc2c[nH]cn2)C(=O)N1)C(N)=O [Compound R3105] (Ac-[Nva]C[Phg]T[Trp(7-aza)]EY[NMeS]H[hCys][Nva]-NH2; linker 2-10 via mXylylene) = > 5 µM

Continue with the next compound.
Enquiry: Provide IC50 value for the following compound: CCC[C@H](NC(=O)[C@@H]1CSCc2cccc(c2)CSC[C@H](NC(=O)[C@@H](NC(C)=O)C2CCCCC2)C(=O)N[C@@H](c2ccccc2)C(=O)N[C@@H]([C@@H](C)O)C(=O)N[C@@H](Cc2c[nH]c3ncccc23)C(=O)N[C@@H](CCC(=O)O)C(=O)N[C@@H](Cc2ccc(O)cc2)C(=O)N(C)[C@@H](CO)C(=O)N[C@@H](C)C(=O)N1)C(N)=O [Compound R3089] (Ac-[Chg]C[Phg]T[Trp(7-aza)]EY[NMeS]AC[Nva]-NH2; linker 2-10 via mXylylene)
Return: > 15 µM

Where do these numbers come from? They come from patent US10208089B2.
